# tested_target: UniProt P25929
# Sequence (P25929 whole entry): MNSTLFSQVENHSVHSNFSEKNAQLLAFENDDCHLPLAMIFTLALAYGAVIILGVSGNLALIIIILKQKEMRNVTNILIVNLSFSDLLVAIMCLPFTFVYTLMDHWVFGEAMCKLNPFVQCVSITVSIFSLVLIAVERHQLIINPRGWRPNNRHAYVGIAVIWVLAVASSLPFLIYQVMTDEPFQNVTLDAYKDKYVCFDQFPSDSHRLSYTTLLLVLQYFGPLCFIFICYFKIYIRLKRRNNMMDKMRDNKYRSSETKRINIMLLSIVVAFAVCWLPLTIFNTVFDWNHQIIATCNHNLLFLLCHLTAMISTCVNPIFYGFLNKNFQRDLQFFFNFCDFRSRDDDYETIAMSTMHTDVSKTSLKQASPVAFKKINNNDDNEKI
# measurement_protocol: Displacement of [3H]NPY from neuropeptide Y1 receptor in human SK-N-MC cells at 100 ug/ml after 60 mins by scintillation counting
# Format: cell-based
endpoint_label: Activity (%)
Answers are plain numbers, in %.

Here is how some molecules turned out for Activity.
CN(C)CCc1c[nH]c2ccc(Br)cc12 : 76
CC(=O)OC(C)C(OC(C)=O)C(CCCCCCCCCCCCC1=CC(C)OC1=O)C(=O)O (stereo unspecified) : 86
O=C1C2=C(C3=NCCc4c[nH]c1c43)C1(C=C(Br)C(O)C(Br)=C1)CCN2 (stereo unspecified) : 29
CC/C=C/C(CC)CCC[C@@]1(CC)C[C@H](CC)[C@H](CC(=O)OC)OO1 (stereo partly specified) : 100

Okay, here is my list. What is Activity for each of these?
1. Nc1ncc(C2=CCNC(=O)c3[nH]c(Br)c(Br)c32)[nH]1
2. Nc1nc([C@H]2[C@H](CNC(=O)c3cc(Br)c[nH]3)[C@@H](CNC(=O)c3cc(Br)c[nH]3)[C@@H]2c2c[nH]c(N)n2)c[nH]1
3. CC/C=C/C(CC)CCC[C@@]1(CC)C[C@H](CC)[C@H](CC(=O)O)OO1 (stereo partly specified)
4. O=C1C[C@H]2S[C@H]3C[C@]2(C=C1Br)C1=C(N3)C(=O)c2[nH]cc3c2C1=NCC3
5. CC(C)C[C@H]1NC(=O)[C@@H](Cc2ccccc2)NC(=O)[C@@H](CC(C)C)NC(=O)[C@H](NC(=O)[C@@H](Cc2ccccc2)NC(=O)C(C)C)[C@H](C)OC(=O)[C@H](CO)NC(=O)[C@@H]([C@H](C)O)NC1=O
6. CN(C)CCc1c[nH]c2cc(Br)c(Br)cc12
7. N=C(NCCCCCCNC(=N)NC(=N)Nc1ccc(Cl)cc1)NC(=N)Nc1ccc(Cl)cc1

Ans:
81
12
56
40
18
17
81
